Reported values of IC50 for individual entries
# target of assay: αvβ1 (Homo sapiens, UniProt P05556+P06756)
# Sequence (P06756 31-992 limits assumed): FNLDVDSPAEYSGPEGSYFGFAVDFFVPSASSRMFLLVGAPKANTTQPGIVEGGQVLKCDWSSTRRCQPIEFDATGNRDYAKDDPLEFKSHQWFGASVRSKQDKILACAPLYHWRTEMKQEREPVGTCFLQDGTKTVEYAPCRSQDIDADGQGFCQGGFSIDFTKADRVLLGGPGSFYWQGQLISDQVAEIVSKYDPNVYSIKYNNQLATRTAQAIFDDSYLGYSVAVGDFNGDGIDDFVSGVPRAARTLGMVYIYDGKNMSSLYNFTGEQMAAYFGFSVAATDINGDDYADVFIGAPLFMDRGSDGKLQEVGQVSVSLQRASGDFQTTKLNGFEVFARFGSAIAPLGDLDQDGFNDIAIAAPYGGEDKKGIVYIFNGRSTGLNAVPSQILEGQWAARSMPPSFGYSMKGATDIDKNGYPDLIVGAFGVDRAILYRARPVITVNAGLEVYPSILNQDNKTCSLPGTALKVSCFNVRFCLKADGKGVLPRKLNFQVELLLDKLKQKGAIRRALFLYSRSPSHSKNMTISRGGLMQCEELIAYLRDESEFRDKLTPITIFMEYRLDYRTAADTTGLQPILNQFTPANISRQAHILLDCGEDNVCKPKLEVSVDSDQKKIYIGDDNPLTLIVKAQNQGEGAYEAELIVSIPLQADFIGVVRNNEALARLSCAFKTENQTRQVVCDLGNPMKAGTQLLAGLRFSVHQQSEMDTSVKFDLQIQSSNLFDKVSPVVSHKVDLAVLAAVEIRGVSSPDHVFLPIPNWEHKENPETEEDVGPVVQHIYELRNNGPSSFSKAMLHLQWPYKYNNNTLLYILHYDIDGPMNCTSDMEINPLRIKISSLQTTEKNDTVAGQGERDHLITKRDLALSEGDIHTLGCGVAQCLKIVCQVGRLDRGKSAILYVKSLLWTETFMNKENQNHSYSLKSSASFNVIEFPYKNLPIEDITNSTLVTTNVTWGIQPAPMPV
# Sequence (P05556 21-728 limits assumed): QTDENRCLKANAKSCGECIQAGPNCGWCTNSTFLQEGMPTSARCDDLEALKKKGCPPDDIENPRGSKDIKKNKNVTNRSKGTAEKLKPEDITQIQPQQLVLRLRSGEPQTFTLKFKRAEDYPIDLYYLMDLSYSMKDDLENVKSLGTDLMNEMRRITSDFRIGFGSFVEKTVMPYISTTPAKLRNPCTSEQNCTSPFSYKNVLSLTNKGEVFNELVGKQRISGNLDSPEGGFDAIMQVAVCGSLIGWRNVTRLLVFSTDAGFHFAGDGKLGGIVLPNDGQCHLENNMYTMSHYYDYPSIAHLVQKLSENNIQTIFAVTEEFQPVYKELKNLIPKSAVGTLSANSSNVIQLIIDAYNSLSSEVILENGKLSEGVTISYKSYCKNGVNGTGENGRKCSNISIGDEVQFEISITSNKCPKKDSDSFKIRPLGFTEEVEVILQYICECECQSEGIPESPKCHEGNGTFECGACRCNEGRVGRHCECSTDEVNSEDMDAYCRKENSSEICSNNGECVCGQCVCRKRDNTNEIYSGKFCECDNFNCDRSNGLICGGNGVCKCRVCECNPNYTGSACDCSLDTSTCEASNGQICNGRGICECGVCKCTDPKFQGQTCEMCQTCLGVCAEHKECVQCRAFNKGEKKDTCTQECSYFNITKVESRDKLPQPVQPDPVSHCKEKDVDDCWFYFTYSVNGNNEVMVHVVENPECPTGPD
# protocol notes: Solid Phase Integrin αvβ1 Assay
Structures can show the parent of a compound that is named as a salt.

Illustrative cases are given below, each with its answer.
compound: O=C(CC[C@@H](NC(=O)C12CCC(CC1)CC2)C(=O)O)N[C@@H]1CCN(C(=O)CCCc2ccc3c(n2)NCCC3)C1 [Compound 429]
target of assay: αvβ1 (Homo sapiens, UniProt P05556+P06756)
IC50: > 1000 nM
--
compound: O=C(O)[C@@H](CCO[C@@H]1CCCN(CCCc2ccc3c(n2)NCCC3)C1)c1ccc(F)c(-c2ccccc2)c1 [Compound 485]
target of assay: αvβ1 (Homo sapiens, UniProt P05556+P06756)
IC50: > 1000 nM
--
compound: O=C(O)C[C@@H](NC(=O)[C@@H]1CCCN(CCCc2ccc3c(n2)NCCC3)C1)c1cccc(OC2COC2)c1 [Compound 412]
target of assay: αvβ1 (Homo sapiens, UniProt P05556+P06756)
IC50: < 100 nM

The reported IC50 of the compound O=C(NC[C@H](NC(=O)C12CCC(CC1)CC2)C(=O)O)[C@@H]1CCCN(CCCc2ccc3c(n2)NCCC3)C1 [Compound 270] was < 100 nM

The reported IC50 of the compound O=C(N[C@@H](CNC(=O)[C@@H]1CCCN(CCCc2ccc3c(n2)NCCC3)C1)C(=O)O)c1cccc(Cl)c1Cl [Compound 365] was < 100 nM

The reported IC50 of the compound O=C(O)C[C@H](NC(=O)[C@@H]1CCCN(CCCc2ccc3c(n2)NCCC3)C1)c1cccc(Br)c1 [Compound 205, hydrochloride] was < 100 nM

====

# target of assay: αvβ1 (Homo sapiens, UniProt P05556+P06756)
# protocol notes: Solid Phase Integrin αvβ1 Assay
Where a name gives a salt, the structure may show the parent alone.
measure name: IC50

molecule: O=C(O)CC(NC(=O)[C@@H]1CCCN(CCCc2ccc3c(n2)NCCC3)C1)c1cccc2c1OCO2 (stereo partly drawn) [Compound 218, hydrochloride]
IC50: < 100 nM
--
molecule: O=C(NC[C@H](Nc1ncncc1C(F)(F)F)C(=O)O)[C@@H]1CCCN(CCCc2ccc3c(n2)NCCC3)C1 [Compound 563]
IC50: < 100 nM
--
molecule: O=C(O)C[C@@H](NC(=O)[C@@H]1CCCN(CCCc2ccc3c(n2)NCCC3)C1)c1cc(F)cc(C(F)(F)F)c1 [Compound 208-A]
IC50: < 100 nM
--
molecule: Cc1csc2ncnc(N[C@@H](CCO[C@@H]3CCCN(CCCc4ccc5c(n4)NCCC5)C3)C(=O)O)c12 [Compound 473]
IC50: > 1000 nM
--
molecule: O=C(O)C[C@H](CC[C@@H]1CCCN(CCCc2ccc3c(n2)NCCC3)C1)c1ccccc1 [Compound 298-B]
IC50: < 100 nM

The reported IC50 of the molecule C[C@@H]1CN(c2cccc([C@H](CC(=O)O)NC(=O)[C@@H]3CCCN(CCCc4ccc5c(n4)NCCC5)C3)c2)C[C@@H](C)O1 [Compound 618] was < 100 nM

The reported IC50 of the molecule O=C(CC[C@H](C(=O)O)c1ccccc1)N[C@@H]1CCN(CCCCc2ccc3c(n2)NCCC3)C1 [Compound 420] was > 1000 nM

====

Reported values of pIC50 for individual entries
# target of assay: αvβ6 (Homo sapiens, UniProt P06756+P18564)
# Sequence (P06756 31-992 limits assumed): as the sequence (P06756 31-992 limits assumed) above
# Sequence (P18564 22-707 limits assumed): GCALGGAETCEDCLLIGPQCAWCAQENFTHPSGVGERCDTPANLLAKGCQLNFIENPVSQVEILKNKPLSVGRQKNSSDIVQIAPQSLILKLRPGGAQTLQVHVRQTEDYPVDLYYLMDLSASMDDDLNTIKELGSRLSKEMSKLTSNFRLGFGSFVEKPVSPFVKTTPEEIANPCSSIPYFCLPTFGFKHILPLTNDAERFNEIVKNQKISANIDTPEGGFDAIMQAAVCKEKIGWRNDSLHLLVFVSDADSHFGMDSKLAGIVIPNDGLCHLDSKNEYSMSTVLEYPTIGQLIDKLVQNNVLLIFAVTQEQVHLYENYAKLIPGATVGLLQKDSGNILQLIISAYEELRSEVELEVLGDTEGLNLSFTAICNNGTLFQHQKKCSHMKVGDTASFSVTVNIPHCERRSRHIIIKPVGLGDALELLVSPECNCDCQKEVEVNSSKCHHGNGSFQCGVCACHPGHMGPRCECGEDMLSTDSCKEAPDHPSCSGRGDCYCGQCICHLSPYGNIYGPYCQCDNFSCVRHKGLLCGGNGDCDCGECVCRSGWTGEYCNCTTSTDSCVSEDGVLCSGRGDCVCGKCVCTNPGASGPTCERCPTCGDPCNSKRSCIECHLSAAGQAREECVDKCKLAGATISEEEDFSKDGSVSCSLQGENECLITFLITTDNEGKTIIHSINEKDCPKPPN
# protocol notes: Solid Phase Integrin αvβ6 Assay
pIC50: −log10 of the molar value.

Illustrative cases are given below, each with its answer.
structure notation: O=C(NC[C@H](C(=O)O)c1ccc(-c2ccccc2)cc1)[C@@H]1CCCN(CCCc2ccc3c(n2)NCCC3)C1
target of assay: αvβ6 (Homo sapiens, UniProt P06756+P18564)
pIC50: > 7.00
--
structure notation: CC1(C)COCCN1c1cccc([C@H](CNC(=O)[C@@H]2CCCN(CCCc3ccc4c(n3)NCCC4)C2)C(=O)O)c1
target of assay: αvβ6 (Homo sapiens, UniProt P06756+P18564)
pIC50: > 7.00

Shift focus to the following entry.
The reported pIC50 of the compound C[C@@H]1C[C@H](C(=O)N[C@@H](CC(=O)O)c2ccccc2)CN(CCCc2ccc3c(n2)NCCC3)C1 was > 7.00

====

# target of assay: αvβ6 (Homo sapiens, UniProt P06756+P18564)
# protocol notes: Solid Phase Integrin αvβ6 Assay
pIC50: −log10 of the molar value. Counter-ions that a name gives are not always drawn.
Reported values of pIC50 for individual entries

molecule: O=C(NC[C@H](NC(=O)C1(c2ccccc2)CC1)C(=O)O)[C@@H]1CCCN(CCCc2ccc3c(n2)NCCC3)C1 [Compound 547]
result: > 7.00

molecule: O=C(NC[C@H](Nc1nc2ccccc2s1)C(=O)O)[C@@H]1CCCN(CCCc2ccc3c(n2)NCCC3)C1 [Compound 281]
result: > 7.00

molecule: O=C(NC[C@@H](Nc1cccnc1C1CC(F)(F)C1)C(=O)O)[C@@H]1CCCN(CCCc2ccc3c(n2)NCCC3)C1 [Compound 593]
result: > 7.00

molecule: O=C(O)C[C@@H](CO[C@@H]1CCCN(CCCc2ccc3c(n2)NCCC3)C1)c1ccccc1-c1ccccc1 [Compound 461]
result: < 6.00

molecule: O=C(O)[C@@H](CCO[C@@H]1CCCN(CCCCc2ccc3c(n2)NCCC3)C1)NC(=O)C12CCC(CC1)CC2 [Compound 384]
result: < 6.00

molecule: O=C(O)CC(CO[C@@H]1CCCN(CCCc2ccc3c(n2)NCCC3)C1)c1ccccc1 (some centres unmarked) [Compound 297, hydrochloride]
result: > 7.00

molecule: O=C(O)C[C@H](NC(=O)[C@@H]1CCCN(CCCc2ccc3c(n2)NCCC3)C1)c1cccc(N2CCCC2)c1 [Compound 227]
result: > 7.00

molecule: O=C(O)C[C@H](NC(=O)[C@@H]1CCCN(CCCc2ccc3c(n2)NCCC3)C1)c1cccc(N2CCCC2=O)c1 [Compound 239]
result: > 7.00

So the reported pIC50 for O=C(NC[C@H](C(=O)O)c1cccc(-c2ccncc2)c1)[C@@H]1CCCN(CCCc2ccc3c(n2)NCCC3)C1 [Compound 517] , on αvβ6 (Homo sapiens, UniProt P06756+P18564), turned out to be > 7.00

So the reported pIC50 for O=C(NC[C@H](C(=O)O)c1cccc2cnn([C@@H]3CCOC3)c12)[C@@H]1CCCN(CCCc2ccc3c(n2)NCCC3)C1 [Compound 323] , on αvβ6 (Homo sapiens, UniProt P06756+P18564), turned out to be > 7.00

====

# target of assay: αvβ6 (Homo sapiens, UniProt P06756+P18564)
# protocol notes: Solid Phase Integrin αvβ6 Assay
Reported values of IC50 for individual entries

Illustrative cases are given below, each with its answer.
structure notation: C[C@H]1C[C@H](C(=O)NC[C@@H](C(=O)O)c2cccc(-c3ccccc3)c2)CN(CCCc2ccc3c(n2)NCCC3)C1
IC50: 100 to 1000 nM
//
structure notation: CC1(C)CCN(c2cccc([C@H](CC(=O)O)NC(=O)[C@@H]3CCCN(CCCc4ccc5c(n4)NCCC5)C3)c2)CC1
IC50: < 100 nM

Shift focus to the following entry.
So the reported IC50 for O=C(O)[C@@H](CCO[C@@H]1CCCN(Cc2ccc3c(n2)NCCC3)C1)NC(=O)C12CCC(CC1)CC2 , on αvβ6 (Homo sapiens, UniProt P06756+P18564), turned out to be < 100 nM

====

# target of assay: αvβ6 (Homo sapiens, UniProt P06756+P18564)
# protocol notes: Solid Phase Integrin αvβ6 Assay
pIC50: −log10 of the molar value.
measure name: pIC50

Illustrative cases are given below, each with its answer.
compound: O=C(NC[C@@H](C(=O)O)c1ccc(F)c(-c2ccccc2)c1)[C@@H]1CCCN(CCCc2ccc3c(n2)NCCC3)C1
target of assay: αvβ6 (Homo sapiens, UniProt P06756+P18564)
result: 6.00 to 7.00

compound: O=C(O)[C@@H](CCO[C@@H]1CCCN(CCCc2ccc3c(n2)NCCC3)C1)Nc1ncnc2ccccc12
target of assay: αvβ6 (Homo sapiens, UniProt P06756+P18564)
result: 6.00 to 7.00

compound: O=C(NC[C@H](Nc1cncc(-c2ccccc2)c1)C(=O)O)[C@@H]1CCCN(CCCc2ccc3c(n2)NCCC3)C1
target of assay: αvβ6 (Homo sapiens, UniProt P06756+P18564)
result: > 7.00

Shift focus to the following entry.
So the reported pIC50 for O=C(NC[C@H](C(=O)O)c1cnc2[nH]ccc2c1)[C@@H]1CCCN(CCCc2ccc3c(n2)NCCC3)C1 , on αvβ6 (Homo sapiens, UniProt P06756+P18564), turned out to be > 7.00
